Compiled literature pKi, tested on 5-hydroxytryptamine receptor 7 (Homo sapiens, UniProt P34969).
Sequence (P34969 whole entry): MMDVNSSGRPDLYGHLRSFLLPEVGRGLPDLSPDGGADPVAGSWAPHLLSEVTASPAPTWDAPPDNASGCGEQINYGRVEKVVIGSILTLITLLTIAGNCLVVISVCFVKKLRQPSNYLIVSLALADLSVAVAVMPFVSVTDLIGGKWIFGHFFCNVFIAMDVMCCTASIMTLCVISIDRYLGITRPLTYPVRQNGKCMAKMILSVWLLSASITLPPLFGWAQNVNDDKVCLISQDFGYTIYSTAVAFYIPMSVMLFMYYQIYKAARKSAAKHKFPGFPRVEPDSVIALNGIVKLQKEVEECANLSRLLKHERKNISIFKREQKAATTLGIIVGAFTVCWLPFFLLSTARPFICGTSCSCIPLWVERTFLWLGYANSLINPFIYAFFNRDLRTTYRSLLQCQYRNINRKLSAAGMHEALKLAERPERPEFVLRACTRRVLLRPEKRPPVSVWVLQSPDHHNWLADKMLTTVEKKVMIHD
pKi: −log10 of the molar value.
readout-name: pKi

Solved cases below.
{"compound": "O=c1n(CCCCCCN2CCN(c3cccc4ccccc34)CC2)nc2ccccn12", "result-value": 6.73}
{"compound": "COc1ccccc1N1CCN(Cc2ccccc2-c2ccccc2C)CC1", "result-value": 6.51}
{"compound": "O=C1c2ccccc2S(=O)(=O)N1CCCCCCN1CCN(c2cccc3ccccc23)CC1", "result-value": 7.70}
{"compound": "CN(C)CCN1C(=O)c2ccccc2/C=C\\c2ccccc21", "result-value": 4.07}
{"compound": "O=C1Nc2cccc3c2C1(CCCCN1CCc2sccc2C1)CCC3 (stereo unspecified)", "result-value": 8.19}
{"compound": "O=C1CC(c2c[nH]c3ccc(F)cc23)C(=O)N1CCCCN1CCC(c2c[nH]c3ccc(F)cc23)CC1 (stereo unspecified)", "result-value": 5.94}

(I) CSc1ccccc1N1CCN(CCCCCC(=O)N2Cc3ccccc3C[C@H]2C(N)=O)CC1
(II) Cl.O=S(=O)(c1cccc2ccccc12)c1n[nH]c2ccc(NC3CCNCC3)cc12
(III) Cc1sc2nc(CCCCCN3CCN(c4ccc(Cl)cc4)CC3)[nH]c(=O)c2c1C
(IV) CN(C)CCSc1nc(-c2ccccc2)cs1
(V) O=S(=O)(NC1CCN(CCOc2cccc3c2CCCC3)C1)c1cccs1 (stereo unspecified)
QUERY: // sort entries: pKi, high to low // rank by listing labels in the order requested
RESULT: IV, V, I, III, II

(P) N#Cc1ccccc1N1CCN(CC(O)CN2C(=O)NC(c3ccccc3)(c3ccccc3)C2=O)CC1 (racemic)
(Q) CCC1(OC)c2ccccc2-c2ccc(C(=O)N=C(N)N)cc21.Cl (stereo unspecified)
QUERY: Compare reported pKi values for P and Q . Which is lower? Answer format: the label of the selected item.
RESULT: P
(P: 5.92, Q: 9.22)
